System: SN12C renal
assay protocol: NCI tumour cell line growth inhibition, 48 h
Quick reference: TGI of the listed items.
measured parameter: TGI

- CCN(CC)CCCC(C)N=C(C1=C(C(=NC(C)CCCN(CC)CC)c2cccc(OC)c2)C(=O)NC1=O)c1cccc(OC)c1 (stereo not given): 14.3 µM
- CC(C)=CCC/C(C)=C/CC/C(C)=C/CC/C(=C/CC/C(C)=C\CC/C(C)=C/CC/C(C)=C/CC/C(C)=C/Cc1cc(O)ccc1O)CO: > 100 µM
- O=S1Nc2c(Cl)cc(Cl)c3c(Cl)cc(Cl)c(c23)N1: > 100 µM
- COc1cc(Nc2nc3ccccc3cc2C(=O)Nc2ccc(F)c(F)c2)cc(OC)c1OC: > 100 µM
- CCOC(=O)CC(=O)Nc1cccc2[nH]cnc12: > 100 µM
- Clc1ccc(C2Nc3ccccc3C3=NCCN32)cc1 (stereo not given): > 100 µM
- CCCCCCCCCCCCOCCCOP(=O)([O-])OCC[N+](C)(C)C: > 76.7 µM
- CC(C)(C)C1CCC2c3c([nH]c4ccccc34)C3C(=O)N(c4ccccc4)C(=O)C3C2C1 (stereo not given): 17.4 µM
- O=c1[nH]c2cc(Cl)ccc2nc1/C(=N\O)C(O)c1ccc([N+](=O)[O-])cc1 (stereo not given): > 100 µM
- CCOC(=O)CNc1nc(=O)c2c(=O)oc(Cl)cc2o1: 53.1 µM

###

Test system: OVCAR-3 ovarian
assay protocol: NCI tumour cell line growth inhibition, 48 h
// reported TGI for each item listed
measured parameter: TGI

- Cc1csc(/N=C\c2c(O)c3ccccc3oc2=O)n1: > 100 µM
- COc1ccc(OC)c(NS(=O)(=O)c2ccc3nc(C)n(NS(=O)(=O)c4cc(OC)ccc4OC)c(=O)c3c2)c1: > 100 µM
- Cc1c2c(OCCN3CCCCC3)nn(C)c(=O)c2c(C)n1-c1ccccc1: > 100 µM
- CNC(=O)Cc1nc(-c2cccc(NS(=O)(=O)c3c(F)cccc3F)c2F)c(-c2ccnc(Nc3ccccc3)n2)s1: > 50 µM
- COc1ccc(-c2c3c(n(C4OC(COC(C)=O)C(OC(C)=O)C(OC(C)=O)C4OC(C)=O)c(=S)c2C#N)CC(C)(C)CC3=O)cc1 (configuration not stated): > 100 µM
- O=C(NCc1cccc2ccccc12)N/N=C\c1ccc(Cl)cc1: > 100 µM
- CCCCCCCCCCC1OC([C@@H](O)CC[C@H](O)C2CC[C@@H](CCCCCCCC(O)CC3=CC(C)OC3=O)O2)CCC1O (some centres not stated): > 23.5 µM
- Cc1cc(S(=O)(=O)Nc2nc(N)nc(N(C)C)n2)c(SCC(=O)O)cc1Cl: > 10 µM
- Nc1nn2c(nc(N)c3c(N)[nH]nc32)c1N=Nc1ccc(Br)cc1: > 78 µM
- CCOc1cccc2ccc[n+](CC)c12: > 100 µM
- COC(C(=O)NCCCCNC(=O)C(OC)c1ccccc1)c1ccccc1 (configuration not stated): > 100 µM
- O=c1c2cccc3cccc(c4n1CCN=4)c32: > 100 µM

###

System: RXF 393 renal
assay protocol: NCI tumour cell line growth inhibition, 48 h
Let's look at some molecules and their measured TGI.
measured parameter: TGI

- NC1=CN2c3ccccc3N(CC(=O)O)C2C=C1 (stereo not drawn): > 100 µM
- O=[N+]([O-])c1ccc(C=NCC2CCCN3CCCCC23)cc1 (stereo not drawn): > 100 µM
- O=C(O)C(Cl)(c1ccccc1)c1ccccc1: > 100 µM

###

System: HS 578T breast
assay protocol: NCI tumour cell line growth inhibition, 48 h; in the data active means GI50 below about 0.43 µM; inactive means the rest
Classes used: active, inactive

• COc1ccc(OC)c(-c2cc(-c3ccc(Cl)cc3)nn2-c2ccc(S(=O)(=O)NC(C)=O)cc2)c1 = inactive
• COC(=O)c1cc(O)c2c(c1C(=O)OC)C[C@H]1[C@@H]3CC=C4C[C@@H](O)CC[C@]4(C)[C@H]3CC[C@]21C = inactive
• COc1cccc(NC(=O)c2sc3nc4c(cc3c2N)C(=O)CCC4)c1 = active

###

Tested on: HL-60(TB) leukemia
assay protocol: NCI tumour cell line growth inhibition, 48 h
Attribute: TGI
measured parameter: TGI

* Cc1ccc(/C(O)=C/c2nc3ccccc3s/c2=N/CS(=O)(=O)c2ccc(C)cc2)cc1 | > 10 µM
* CCOC(=O)C(C)(C)Oc1ccc(/C=C/C(=O)c2ccc(Cl)cc2)cc1 | > 100 µM
* CC(=O)N=C1N(/C=C2\C(=O)Oc3ccccc3C2=O)C(=O)/C(=C/c2ccc(Cl)cc2Cl)N1C | > 100 µM
* O=C(O)CCC(=O)c1ccc(Cl)cc1 | > 100 µM
* C[N+]1(CCCl)CC[N+](C)(CCCl)CC1 (configuration not stated) | > 100 µM
* COC(C(=O)NCCCCNC(=O)C(OC)c1ccccc1)c1ccccc1 (configuration not stated) | > 100 µM
* CCNC(=O)c1c(O)c2ccccc2[nH]c1=O | > 100 µM
* O=C1/C(=C\c2ccccn2)c2ccccc2N1c1c(Cl)cccc1Cl | > 29.6 µM
* FC(F)(F)C1(Br)C(c2ccccc2)=C1c1ccccc1 | > 100 µM
* O=C(Nc1ccc(-n2ccc3c(NC(=O)c4ccccc4)ncnc32)cc1)Nc1cccc(Cl)c1Cl | > 50 µM
* N#CC1=C(N)NC(N2CCOCC2)=NC12Nc1ccccc1N2 | > 100 µM
* CC(C)C(/C=C/c1ccc(Cl)c(Cl)c1)=N\NC(=O)N/N=C(/C=C/c1ccc(Cl)c(Cl)c1)C(C)C | > 100 µM
* CC1=NN(c2nc(N)nc(CC#N)n2)C(C)(C)C1 | > 100 µM
* c1c[nH]c(C23C4C5C6C4C2C6C53)n1 (configuration not stated) | > 100 µM
* O=C(Cc1ccccc1)Nn1c(-c2ccccc2)nc2ccccc2c1=O | > 100 µM
* C=C(Nc1ccc([N+](=O)[O-])cc1[N+](=O)[O-])c1c/c(=N\NC(N)=S)c2ccccc2o1 | > 100 µM
* COc1cccc(NC(=O)c2sc3nc4c(cc3c2N)C(=O)CCC4)c1 | > 100 µM
* O=[N+]([O-])CCc1cccc([N+](=O)[O-])c1 | > 100 µM
* COc1ccc(OC)c2c1[nH]c(=O)c1c3ncccc3cn21 | > 100 µM
* CC(=O)NC1=C[C@@H]([C@H]2COC(C)(C)O2)OC1=O | > 100 µM
* COc1cc(Nc2nc3ccccc3cc2C(=O)Nc2ccc(F)c(F)c2)cc(OC)c1OC | 7.14 µM
* COc1c(O)cc2c(c1O)C(=O)/C(=C/c1ccc(O)cc1)CO2 | > 100 µM
* O=C1OC(O)C(Oc2c(Cl)cccc2Cl)=C1Cl (configuration not stated) | 50.1 µM
* CC[C@H]1C=CCC[C@@]2(C[C@@H]3CC[C@H]4[C@@H](C(=O)OCCCCCCCCCCCCCCCC(=O)N(CCCN)C[C@@H](O)CCN)[C@@]5(CCC[C@@H](C)O5)NC(=[N+]34)N2)O1 | 4.24 µM
* Cc1ccc(/C=N/Nc2ccc3ccccc3n2)s1 | > 100 µM
* Clc1ccc(C(SCc2ccccc2)SCc2ccccc2)cc1 | > 10 µM
* CN(Cc1cc(Cl)cc(Cl)c1)CC(C(=O)c1ccccc1)c1ccccc1 (configuration not stated) | 47.4 µM

###

Test system: OVCAR-5 ovarian
assay protocol: NCI tumour cell line growth inhibition, 48 h
measured parameter: TGI

- CN(C)c1nc(=Nc2cccc(Cl)c2)ss1: 74.6 µM
- Cc1ccc(/C(O)=C/c2nc3ccccc3s/c2=N/CS(=O)(=O)c2ccc(C)cc2)cc1: > 10 µM
- C=C(OC1C(C)=C2C(C1OC(=O)CCCCCCC)C(C)(OC(C)=O)CC(OC(=O)CCC)C1(O)C2OC(=O)C1(C)O)/C(C)=C/C (stereo not drawn): 8.64 µM
- Cc1cc(=O)oc2c(C)c(OCCCOc3ccc4c(C)cc(=O)oc4c3C)ccc12: > 100 µM
- COC(=O)C1[C@H](c2cc(OC)c(OC)c(OC)c2)OC(=O)C1(C(=O)OC)C(=O)c1ccc2c(c1)OCO2 (stereo partly drawn): > 100 µM
- Cc1cc(C)c(NC(=S)NC(=O)c2ccccc2)cc1C: > 100 µM
- COc1cc(-c2nc(-c3nc4ccccc4[nH]3)cc3c2[nH]c2ccccc23)cc(OC)c1OC: > 100 µM
- FC(F)(F)c1cccc(-c2nc3ccccc3c3c2[C@@]2(N4CCCC4)CCCC[C@@H]32)c1: > 100 µM

###

Measured TGI, listed per entry.
Test system: UO-31 renal
assay protocol: NCI tumour cell line growth inhibition, 48 h
measured parameter: TGI

- O=C(/C=C/c1ccccc1)n1c(-c2ccc(Cl)cc2)nc2ccccc21: 3.55 µM
- CC1=NN(c2nc(N)nc(CC#N)n2)C(C)(C)C1: > 100 µM
- COc1cc2c(=O)cnoc2cc1O: > 100 µM
- Nc1ccn(C2OC(COC(=O)C34CC5CC(CC(C5)C3)C4)C(O)C2O)c(=O)n1 (configuration not stated): > 100 µM
- Cc1ccc2nc(-c3ccc(N4C(=O)C(Cl)C4c4ccc(Cl)cc4)cc3)sc2c1 (configuration not stated): 45.8 µM
- CCOC(=O)CC1C(COC(=O)NC)OC(n2cnc3c(NC(=O)Nc4ccccc4)ncnc32)C1O[Si](C)(C)C(C)(C)C (configuration not stated): 55.4 µM
- CC(=O)OC[C@@H](OC(C)=O)[C@H](OC(C)=O)[C@@H]1OC(C)(C)O[C@@H]1C1SCCCS1: > 100 µM
- CC[C@H]1C=CCC[C@@]2(C[C@@H]3CC[C@H]4[C@@H](C(=O)OCCCCCCCCCCCCCCCC(=O)N(CCCN)C[C@@H](O)CCN)[C@@]5(CCC[C@@H](C)O5)NC(=[N+]34)N2)O1: > 10 µM
- CCCCCCCCCCC1OC([C@@H](O)CC[C@H](O)C2CC[C@@H](CCCCCCCC(O)CC3=CC(C)OC3=O)O2)CCC1O (some centres not stated): 10.4 µM
- CC(C)(C)C(=O)OCC1CCC(n2cnc3c(=O)[nH]c(N)nc32)O1 (configuration not stated): > 100 µM
- O=C1CC(c2cccc(Br)c2)n2cccc21 (configuration not stated): 66.9 µM
- c1csc(C[N+]23CN4CN(CN(C4)C2)C3)c1: > 100 µM
- COc1cc(CNC2c3cc4c(cc3C(c3cc(OC)c(OC)c(OC)c3)[C@H]3C(=O)OCC23)OCO4)cc(OC)c1OC (some centres not stated): > 100 µM
- CCc1cccc(CC)c1NC(=O)C1=C(C)NC(C)=C(C(=O)Nc2c(CC)cccc2CC)C1c1ccc([N+](=O)[O-])cc1: > 100 µM
- O=C(NCc1cccc2ccccc12)N/N=C\c1ccc(Cl)cc1: > 100 µM
- C=C[C@@]1(O)CCCC2=C(C(=O)OCC)CC[C@]21C: > 100 µM
- CC1=Nc2sc3c(c2C2=NCCN12)CCCC3: 50.5 µM
- COc1ccccc1CNCCCN1C(=O)c2ccc3c4c(ccc(c24)C1=O)C(=O)N(CCCCNCCCN)C3=O: 14.4 µM
- Cc1cc(=O)oc2c(C)c(OCCCOc3ccc4c(C)cc(=O)oc4c3C)ccc12: > 100 µM
- CC1=NN(C(=O)c2ccc([N+](=O)[O-])cc2)C(=O)C1N=Nc1ccccc1C(=O)O (configuration not stated): > 100 µM
- COc1cc(-c2nc(-c3nc4ccccc4[nH]3)cc3c2[nH]c2ccccc23)cc(OC)c1OC: > 100 µM
- CN(c1ccccc1Cl)S(=O)(=O)c1ccc([N+](=O)[O-])cc1: > 100 µM
